Origin of the recorded values: PubChem BioAssay AID811

biological target: Toll-like receptor 4 (Homo sapiens) (UniProt O00206); experiment: inhibitors of human TLR4-MyD88 binding (AID 811); conditions: Cell-based TLR4-MyD88 binding inhibition assay; at 10 µM; active compounds read high
Sequence (O00206 whole entry, looked up): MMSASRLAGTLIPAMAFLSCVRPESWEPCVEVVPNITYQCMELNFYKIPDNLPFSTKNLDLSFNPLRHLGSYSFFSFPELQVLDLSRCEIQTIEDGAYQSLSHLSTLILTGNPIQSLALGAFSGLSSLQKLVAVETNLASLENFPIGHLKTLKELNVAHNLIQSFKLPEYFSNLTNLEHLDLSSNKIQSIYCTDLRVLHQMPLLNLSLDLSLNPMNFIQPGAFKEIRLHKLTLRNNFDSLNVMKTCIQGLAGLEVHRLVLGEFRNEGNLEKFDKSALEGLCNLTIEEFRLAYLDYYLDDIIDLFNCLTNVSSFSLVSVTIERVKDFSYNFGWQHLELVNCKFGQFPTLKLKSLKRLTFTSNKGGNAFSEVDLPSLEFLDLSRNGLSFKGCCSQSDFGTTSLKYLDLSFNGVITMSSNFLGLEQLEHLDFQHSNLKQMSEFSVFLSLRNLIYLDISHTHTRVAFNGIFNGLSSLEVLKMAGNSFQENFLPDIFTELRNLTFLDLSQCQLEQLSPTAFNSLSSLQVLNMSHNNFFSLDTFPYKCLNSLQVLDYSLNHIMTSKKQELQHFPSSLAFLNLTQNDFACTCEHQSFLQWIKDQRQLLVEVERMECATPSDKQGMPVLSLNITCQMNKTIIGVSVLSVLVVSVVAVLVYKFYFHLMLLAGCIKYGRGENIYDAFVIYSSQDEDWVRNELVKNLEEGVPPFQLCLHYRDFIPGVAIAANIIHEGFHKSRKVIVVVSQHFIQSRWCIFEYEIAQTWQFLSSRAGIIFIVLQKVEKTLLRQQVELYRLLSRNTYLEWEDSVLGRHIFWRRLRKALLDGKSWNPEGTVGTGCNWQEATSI
Among all 16,000 compounds or so, about 10 (0.06%) were called active. The entries come from a sample that favours actives as a whole.
inhibition values for the molecules below.
REPORTED METRIC: inhibition (%)

> print(dat)
                                    molecule                              assay.target  result.unit  measured.result
 1              N#CCc1ccc(OC(=O)c2cccnc2)cc1  Toll-like receptor 4 (Homo sapiens) (UniProt O00206)            %            -3.47
 2  N/C(Cc1ccc(F)cc1F)=N\OC(=O)c1cccc(C(F)(F)F)c1  Toll-like receptor 4 (Homo sapiens) (UniProt O00206)            %             2.07
 3   Cc1nc(C(=O)NNC(=S)Nc2ccccc2C(F)(F)F)cs1  Toll-like receptor 4 (Homo sapiens) (UniProt O00206)            %            -3.73
 4       C/C(=N\O)C(C)(C)Nc1ccc(C(C)(C)C)cc1  Toll-like receptor 4 (Homo sapiens) (UniProt O00206)            %             0.91
 5             Cc1nnsc1C(=O)N/N=C/c1ccccc1Cl  Toll-like receptor 4 (Homo sapiens) (UniProt O00206)            %            -4.11
 6  Cc1cc(NC(=O)c2cc(-c3ccccc3)c(C(F)(F)F)s2)no1  Toll-like receptor 4 (Homo sapiens) (UniProt O00206)            %            -1.45
 7  CC(=O)OC1=CCC2C3CC[C@@]4(C)CC(OC(C)=O)CCC4(C)C3C(OC(C)=O)CC12C (some centres not stated)  Toll-like receptor 4 (Homo sapiens) (UniProt O00206)            %             5.37
 8  CCOC(=O)c1cnc2c(S(=O)(=O)C(C)C)csc2c1Sc1cccc(Cl)c1  Toll-like receptor 4 (Homo sapiens) (UniProt O00206)            %            -1.87
 9  Cc1nnc(Sc2ccc([N+](=O)[O-])c(Sc3nnc(C)s3)n2)s1  Toll-like receptor 4 (Homo sapiens) (UniProt O00206)            %            -6.36
10             CCOC(=O)c1nnc2c(Br)c(C)nn2c1C  Toll-like receptor 4 (Homo sapiens) (UniProt O00206)            %             0.26
11                 O=C(O)c1cnc(NCc2ccccc2)s1  Toll-like receptor 4 (Homo sapiens) (UniProt O00206)            %            -1.62
12  COC(=O)/C=C/c1cn(C2OCC(CO)C2O)c(=O)[nH]c1=O (configuration not stated)  Toll-like receptor 4 (Homo sapiens) (UniProt O00206)            %             5.73

====

biological target: Toll-like receptor 4 (Homo sapiens) (UniProt O00206); experiment: inhibitors of human TLR4-MyD88 binding (AID 811); settings: Cell-based TLR4-MyD88 binding inhibition assay; at 10 µM; active compounds read high
Screen size: about 16,000 compounds; about 10 (0.06%) were called active. Shown is part of a subset that was picked to be rich in actives.
inhibition values for the compounds below.
REPORTED METRIC: inhibition (%)

> print(dat)
                                    compound  measured.result
 1           CCOC(=O)Cc1nnc(-c2ccc(Cl)cc2)o1             -0.7
 2                 CN(C)C(=S)Nc1ccc(Br)cc1Cl             -2.8
 3  CCc1cnc(NS(=O)(=O)c2cc(Cl)sc2Cl)nc1-c1c(F)cccc1F            -8.06
 4     O=C(Oc1ccccc1N1CCCCC1)c1sc2ccccc2c1Cl             4.69
 5        Cn1cc(C(=O)Nc2ccc(F)c(Cl)c2)c(N)n1            -11.3
 6  Cc1c(N/N=C(\C#N)c2nc3ccccc3[nH]2)c(=O)n(-c2ccccc2)n1C             3.99
 7  Cc1ccc2sc(NC(=O)NC(=O)c3c(Cl)cccc3Cl)nc2c1            -10.8
 8                      Cc1cc(NCc2cccnc2)no1            -4.99
 9                   NS(=O)(=O)c1cc(Br)ccc1I            -0.48
10  Nc1c(-c2nnc(SCC(=O)c3ccccc3)o2)cnn1-c1ccccc1            -5.52
11  O=C(CCc1ccc(O)cc1)N/N=C/c1cc(Cl)cc(Cl)c1O            -1.07
12  Cc1noc(C)c1S(=O)(=O)Nc1cc(C(F)(F)F)ccc1N1CCOCC1             3.25
13                 COc1cccc(OCc2ccccc2)c1C#N               -5
14             CC(=O)Nc1ccc(C)cc1N=Cc1ccncc1            -3.13
15            CC(C)(C)c1ccc(C(=O)CC(N)=O)cc1            -4.12
16              Cc1cc(-c2noc(-c3cccs3)n2)no1            -6.63
17  Cc1cccc(-c2noc(NC(=O)O/N=C/c3ccccc3)n2)c1             5.92
18  Cc1nc(C(F)(F)F)ccc1C(=O)NC1CCCc2ccccc21 (stereo not given)             0.52
19        NS(=O)(=O)c1cccc(NC(=O)c2ccccc2)c1             2.32
20  O=C(NNC(=S)Nc1ccccc1Cl)c1ccc(OC(F)(F)F)cc1             6.01
21       O=c1[nH]c2cc(Cl)c(Cl)cc2n1-c1ccncc1            -5.56
22  Cc1ccc(N=C2SC3(CC3)C(=O)N2c2ccc(C)cc2)cc1            -5.53
23     CC1(C)CC(=O)c2c(NCc3ccco3)sc(C#N)c2C1             8.27
24         COc1ccc(-c2csc(-c3cc(C)on3)n2)cc1             7.05
25  O=S(=O)(c1ccc(Cl)c(Cl)c1)N1CCc2c([nH]c3ccccc23)C1C(F)(F)F (stereo not given)             0.92
